Assay: Kinetic solubility of compound in phosphate buffer at pH 7.4 for 1 hr
Assay type: physicochemical
Conditions: read-out: Kinetic_solubility
Think of 0.1 mg/mL as a floor: if solubility kinetic at 1 h stands on it or above, it is satisfied; beneath it, not satisfied.

As a guide, the following entries are already answered.
>>> print(df.to_string())
                           structure_string    label_value
0       O=C(Nc1cccc(-c2ccccc2)c1)OCc1ccccc1  not satisfied
1  O=C(O)Cc1ccc(-c2ccc(CN3CC(=O)N(c4ccccc4)C3=O)cc2)cc1      satisfied
2  O=C(Cc1ccc(-c2ccc3[nH]ccc3c2)cc1)OCc1ccccc1  not satisfied
3  CC(C)N1C(=O)CN(Cc2ccc(-c3ccc(CC(=O)O)cc3)cc2)C1=O      satisfied

Query :: Answer whether solubility kinetic at 1 h of O=C(O)Cc1ccccc1-c1cccc(NC(=O)OCc2ccccc2)c1 is greater than or equal to 0.1 mg/mL.
Result :: satisfied

Query :: Answer whether solubility kinetic at 1 h of CC(C)N1C(=O)CN(Cc2ccc(-c3ccc(CC(=O)O)cc3)cn2)C1=O is greater than or equal to 0.1 mg/mL.
Result :: satisfied

Query :: Answer whether solubility kinetic at 1 h of O=C(O)Cc1ccc(-c2ccc(N(C(=O)OCc3ccccc3)C3CCCCC3)cc2)cc1 is greater than or equal to 0.1 mg/mL.
Result :: satisfied

Query :: Answer whether solubility kinetic at 1 h of O=C1CN(Cc2ccc(-c3ccccc3)cc2)C(=O)N1c1ccccc1 is greater than or equal to 0.1 mg/mL.
Result :: not satisfied

Query :: Answer whether solubility kinetic at 1 h of O=C1CN(Cc2ccc(-c3ccc(C4(C(=O)O)CC4)cc3)cc2)C(=O)N1c1ccccc1 is greater than or equal to 0.1 mg/mL.
Result :: satisfied

Query :: Answer whether solubility kinetic at 1 h of O=C(Cc1ccc(-c2ccc3cc[nH]c3c2)cc1)OCc1ccccc1 is greater than or equal to 0.1 mg/mL.
Result :: satisfied

Query :: Answer whether solubility kinetic at 1 h of O=C(O)Cc1ccc(-c2ccc(CN3CC(=O)N(C4CCCCC4)C3=O)nc2)cc1 is greater than or equal to 0.1 mg/mL.
Result :: not satisfied

Query :: Answer whether solubility kinetic at 1 h of O=C(O)Cc1cccc(-c2cccc(NC(=O)OCc3ccccc3)c2)c1 is greater than or equal to 0.1 mg/mL.
Result :: satisfied

Query :: Answer whether solubility kinetic at 1 h of O=C(O)Cc1ccc(-c2ccc(N(C(=O)OCc3ccccc3)C3CCOCC3)cc2)cc1 is greater than or equal to 0.1 mg/mL.
Result :: satisfied

Query :: Answer whether solubility kinetic at 1 h of O=C(O)Cc1ccc(-c2ccc(CN3CC(=O)N(C4CCCCC4)C3=O)cc2)cc1 is greater than or equal to 0.1 mg/mL.
Result :: satisfied

Query :: Answer whether solubility kinetic at 1 h of O=C(O)Cc1ccc(-c2cccc(NC(=O)OCc3ccccc3)c2)cc1 is greater than or equal to 0.1 mg/mL.
Result :: satisfied
